# ASSAY_TEXT: solubility
# CONDITION_NOTES: dmf, organic solvent or mixture
QUANTITY_NAME: solubility (mM)
Give bare numbers, in mM.

Would you mind telling me what solubility value was observed for `O=C(N[C@@H](Cc1c(Sc2ccc([N+](=O)[O-])cc2[N+](=O)[O-])[nH]c2ccccc12)C(=O)NCCS(=O)(=O)O)OCc1ccccc1` ? 20

---

# Tested on: murine T-cell lymphoma (LB3)
# ASSAY_TEXT: insulin-dependent proliferation of murine T-cell lymphoma (LB3), thymidine incorporation
# Assay type: cell-based
# CONDITION_NOTES: Mus musculus, T-cell; LB3; insulin-dependent; thymidine added 24 hours later
QUANTITY_NAME: IC50 (nM)
Give bare numbers, in nM.

# query: IC50 | item `O=C(N[C@@H](Cc1c(Sc2ccc([N+](=O)[O-])cc2[N+](=O)[O-])[nH]c2ccccc12)C(=O)NCCS(=O)(=O)O)OCc1ccccc1` | system: murine T-cell lymphoma (LB3) 950

Cited source: patent US5776970A
